These measurements were taken from patent US5001129A.

Assay: LD50 in mice, oral
Test context: mouse, in vivo
Quantity name: LD50

{"Molecule": "COC[C@@H]1OC(=O)N2c3ccc(OC)cc3CC[C@@H]12 (relative stereo)", "LD50": "1120 mg/kg"}

Moving on to the next molecule.
Enquiry: So what's the measured LD50 for this one? CNC[C@H]1OC(=O)N2c3ccc(OC)cc3CC[C@@H]12 (relative stereo)
Return: 263 mg/kg

###

Test system: effects of serotonin (precursor hydroxy-5 tryptophan, 5-HTP)
Assay: potentiation of hydroxy-5 tryptophan (5-HTP): generalised trembling or stereotypies in rats
Test context: Rattus norvegicus, oral, 1 h before 120 mg/kg i.p. 5-HTP, generalised trembling or stereotypies in 50% of the animals, read-out: Test in vivo ED50
Field: ED50. Provide a value for each of the compounds that follow.
Include the unit after the number when you answer.

Solved entries:
{"Compound": "COC[C@H]1OC(=O)N2c3ccc(OC)cc3CC[C@@H]12 (relative stereo) [MD 280448]", "System under test": "effects of serotonin (precursor hydroxy-5 tryptophan, 5-HTP)", "ED50": "1.8 mg/kg"}
{"Compound": "C=C[C@@H]1OC(=O)N2c3ccccc3CC[C@@H]12 (relative stereo) [MD 200503]", "System under test": "effects of serotonin (precursor hydroxy-5 tryptophan, 5-HTP)", "ED50": "20 mg/kg"}

Moving on to the next compound.
Enquiry: Test system effects of serotonin (precursor hydroxy-5 tryptophan, 5-HTP); read-out ED50; what value for COC[C@H]1OC(=O)N2c3ccccc3CC[C@@H]12 (relative stereo) [MD 200682] ?
Return: 2.3 mg/kg

###

Field: IC50. Provide a value for each of the compounds that follow.
System under test: monoamine oxydase (Rattus norvegicus, UniProt P21396)
Construct: in vitro on homogenates of rat brain; from tissue; host or cells: rat brain homogenate
Sequence (P21396 whole entry): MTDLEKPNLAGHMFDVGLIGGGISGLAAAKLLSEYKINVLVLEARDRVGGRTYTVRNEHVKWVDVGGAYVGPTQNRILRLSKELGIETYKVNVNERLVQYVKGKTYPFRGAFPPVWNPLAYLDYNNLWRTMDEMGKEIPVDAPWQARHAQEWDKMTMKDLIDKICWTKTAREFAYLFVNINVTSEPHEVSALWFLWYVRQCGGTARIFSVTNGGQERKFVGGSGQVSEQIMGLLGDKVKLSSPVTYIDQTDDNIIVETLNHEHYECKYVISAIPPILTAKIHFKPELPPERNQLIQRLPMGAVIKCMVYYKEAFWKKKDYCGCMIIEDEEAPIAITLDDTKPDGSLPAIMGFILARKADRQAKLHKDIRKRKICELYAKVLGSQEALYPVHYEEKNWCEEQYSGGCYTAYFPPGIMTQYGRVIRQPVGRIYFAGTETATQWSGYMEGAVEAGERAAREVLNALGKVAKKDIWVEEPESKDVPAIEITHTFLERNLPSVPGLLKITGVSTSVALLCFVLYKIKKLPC
Assay: inhibition of the activity of the monoamine oxydase in vitro on homogenates of rat brain (serotonin as substrate)
Type: biochemical
Test context: serotonin as substrate at 480 μM, read-out: Test in vitro IC50
Numbers only, in µM.

Solved entries:
{"Compound": "COC[C@H]1OC(=O)N2c3ccccc3CC[C@@H]12 (relative stereo) [MD 200682]", "Value unit": "µM", "Readout value": 0.09}
{"Compound": "O=C1O[C@H](CO)[C@@H]2Cc3ccccc3N12 (relative stereo) [MD 200602]", "Value unit": "µM", "Readout value": 2.8}
{"Compound": "C=C[C@@H]1OC(=O)N2c3ccc(OC)cc3CC[C@@H]12 (relative stereo) [MD 280404]", "Value unit": "µM", "Readout value": 0.029}
{"Compound": "O=C1O[C@@H](CO)[C@@H]2CCc3ccc(Cl)cc3N12 (relative stereo) [MD 370335]", "Value unit": "µM", "Readout value": 0.097}
{"Compound": "C=C[C@@H]1OC(=O)N2c3ccccc3CC[C@@H]12 (relative stereo) [MD 200503]", "Value unit": "µM", "Readout value": 0.057}
{"Compound": "COc1ccc2c(c1)CC[C@H]1[C@H](CN)OC(=O)N21 (relative stereo) [MD 370025]", "Value unit": "µM", "Readout value": 1.6}
{"Compound": "COC[C@@H]1OC(=O)N2c3ccc(OC)cc3CC[C@@H]12 (relative stereo) [MD 280449]", "Value unit": "µM", "Readout value": 0.006}
{"Compound": "O=C1O[C@H](CO)[C@@H]2CCc3ccc(Cl)cc3N12 (relative stereo) [MD 370336]", "Value unit": "µM", "Readout value": 0.08}
{"Compound": "O=C1O[C@@H](CO)[C@@H]2Cc3ccccc3N12 (relative stereo) [MD 200718]", "Value unit": "µM", "Readout value": 8.7}
{"Compound": "COC[C@H]1OC(=O)N2c3ccc(OC)cc3CC[C@@H]12 (relative stereo) [MD 280448]", "Value unit": "µM", "Readout value": 0.009}

Moving on to the next compound.
Enquiry: So what's the measured IC50 for this one? COc1ccc2c(c1)CC[C@H]1[C@@H](CN)OC(=O)N21 (relative stereo) [MD 370024]
Return: 1
